Reference for the values: patent US20250154283A1

# MEASURED_TARGET: T1, biotinylated human VWF cysteine knot (CK) domain construct (human, biotin on the in vitro biotinylation tag (residue not stated); one N-glycan)
# T1 construct: Disulfide-linked homodimer; also called biotinylated human VWF CK domain; human VWF CK domain construct
# T1 chain: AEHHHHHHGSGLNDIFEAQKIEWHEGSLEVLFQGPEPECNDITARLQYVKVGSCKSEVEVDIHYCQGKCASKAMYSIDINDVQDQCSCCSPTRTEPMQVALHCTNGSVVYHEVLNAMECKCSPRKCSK
# PROCEDURE_TEXT: SPR, scFv captured on anti-SV5, pH 7.4

>  <BINDER>
16_Lib8_scFv (scFv, not shown: small tags and cut ends) scFv: EVQLVESGGGLVQPGRSLRLSCAASGFRFDEYDMHWVRQAPGKGLEWVSAISSESASIDYADSVEGRFTISRDNAKNSLYLQMNSLRAEDTAVYYCARDGAYGDYFDYWGQGTMVTVSSSGGSTITSYNVYYTKLSSSGTDIQMTQSPSSLSASVGDRVTITCRASQDIKSWLAWYQQKPGKAPKLLIYGASTLQSGVPSRFSGSGSGTDFTLTISSLQPEDVATYYCQQSYSAPYTFGGGTKVEIK

>  <binding result>
binds

$$$$
>  <BINDER>
7046_Lib8_scFv (scFv, not shown: small tags and cut ends) scFv: EVQLVESGGGLVQPGRSLRLSCAASGFNFHNYDMHWVRQAPGKGLEWVSAISGSGYTADYADSVEGRFTISRDNAKNSLYLQMNSLRAEDTAVYYCAKSHSSGWSSAFDIWGQGTMVTVSSSGGSTITSYNVYYTKLSSSGTDIQMTQSPSSLSASVGDRVTITCRASQTIGYWLAWYQQKPGKAPKLLIYDATNLATGVPSRFSGSGSGTDFTLTISSLQPEDVATYYCQHYNPYSQVTFGGGTKVEIK

>  <binding result>
binds

$$$$
>  <BINDER>
Lib8_P4_C10_scFv (scFv, not shown: small tags and cut ends) scFv: EVQLVESGGGLVQPGRSLRLSCAASGFNFHNYDMHWVRQAPGKGLEWVSAISGSSDTMDYADSVEGRFTISRDNAKNSLYLQMNSLRAEDTAVYYCVRASWYGTFFDYWGQGTLVTVSSSGGSTITSYNVYYTKLSSSGTDIQMTQSPSSLSASVGDRVTITCRASQDISGWLAWYQQKPGKAPKLLIYAASSLQDGVPSRFSGSGSGTDFTLTISSLQPEDVATYYCQQSYRIPSTFGGGTKVEIK

>  <binding result>
binds

$$$$
